Origin of values: patent US8778966B2

Target: TANK-2 enzyme (Homo sapiens)
Construct: made in house
Sequence (Q9H2K2 whole entry): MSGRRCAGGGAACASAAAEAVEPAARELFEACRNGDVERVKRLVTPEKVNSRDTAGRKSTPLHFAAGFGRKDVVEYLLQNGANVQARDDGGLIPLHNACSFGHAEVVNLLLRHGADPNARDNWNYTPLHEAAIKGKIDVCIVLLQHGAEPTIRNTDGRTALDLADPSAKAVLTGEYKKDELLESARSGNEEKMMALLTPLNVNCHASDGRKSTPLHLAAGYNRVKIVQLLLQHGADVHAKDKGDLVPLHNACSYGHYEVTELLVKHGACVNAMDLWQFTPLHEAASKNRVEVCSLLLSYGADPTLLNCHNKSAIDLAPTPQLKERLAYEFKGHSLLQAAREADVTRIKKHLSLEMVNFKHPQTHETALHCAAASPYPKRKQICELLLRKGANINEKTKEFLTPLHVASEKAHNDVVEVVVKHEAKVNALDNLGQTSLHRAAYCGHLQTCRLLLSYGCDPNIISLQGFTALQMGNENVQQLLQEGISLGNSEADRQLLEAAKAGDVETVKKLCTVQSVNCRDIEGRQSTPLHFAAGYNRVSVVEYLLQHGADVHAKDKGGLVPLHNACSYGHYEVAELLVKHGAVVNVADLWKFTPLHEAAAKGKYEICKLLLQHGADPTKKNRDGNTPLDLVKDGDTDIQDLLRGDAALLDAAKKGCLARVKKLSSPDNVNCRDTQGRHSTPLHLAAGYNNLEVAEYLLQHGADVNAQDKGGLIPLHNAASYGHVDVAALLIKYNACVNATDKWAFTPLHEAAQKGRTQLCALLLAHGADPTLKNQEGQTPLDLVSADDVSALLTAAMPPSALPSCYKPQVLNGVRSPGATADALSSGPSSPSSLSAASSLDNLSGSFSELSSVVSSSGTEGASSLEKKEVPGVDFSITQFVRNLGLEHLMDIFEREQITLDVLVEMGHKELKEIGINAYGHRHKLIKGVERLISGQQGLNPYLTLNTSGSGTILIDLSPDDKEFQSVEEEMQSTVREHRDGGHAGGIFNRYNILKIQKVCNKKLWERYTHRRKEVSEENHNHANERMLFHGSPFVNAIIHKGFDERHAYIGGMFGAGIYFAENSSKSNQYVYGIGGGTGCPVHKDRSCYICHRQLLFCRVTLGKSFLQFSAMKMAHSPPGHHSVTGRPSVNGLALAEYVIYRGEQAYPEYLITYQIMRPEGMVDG
Assay: In vitro Scintillation Proximity Assay (SPA) for TANK-2 inhibitory activity
Type: biochemical
Settings: read-out: in vitro SPA assay TANK-2 pIC50 (converted)
experimental-readout: log10 IC50 (log10 of the value in nM)

>  <compound>
Cc1cc2ccc(C(C)(C#N)Cc3cccc(C=Cc4ccccc4)c3)cc2[nH]c1=O (centres unmarked)

>  <target-of-assay>
TANK-2 enzyme (Homo sapiens)

>  <log10 IC50>
3.40

$$$$
>  <compound>
CCc1cc2ccc(C(C)(C#N)Cc3cccc(C(F)(F)F)c3F)cc2[nH]c1=O (centres unmarked)

>  <target-of-assay>
TANK-2 enzyme (Homo sapiens)

>  <log10 IC50>
2.10

$$$$
>  <compound>
CCc1cc2ccc(C(C)(C#N)Cc3cccc(OCCOC)c3)cc2[nH]c1=O (centres unmarked)

>  <target-of-assay>
TANK-2 enzyme (Homo sapiens)

>  <log10 IC50>
1.90

$$$$
>  <compound>
CCc1cc2ccc(C(C)(C#N)CCOc3ccc4c(c3)OCO4)cc2[nH]c1=O (centres unmarked)

>  <target-of-assay>
TANK-2 enzyme (Homo sapiens)

>  <log10 IC50>
2.60

$$$$
>  <compound>
CCc1cc2ccc(C(C)(C#N)Cc3cccc(C(=O)NCCOC)c3)cc2[nH]c1=O (centres unmarked)

>  <target-of-assay>
TANK-2 enzyme (Homo sapiens)

>  <log10 IC50>
1.90

$$$$
>  <compound>
CCc1cc2ccc(C(C)(C#N)Cc3ccc(OC(F)(F)F)cc3)cc2[nH]c1=O (centres unmarked)

>  <target-of-assay>
TANK-2 enzyme (Homo sapiens)

>  <log10 IC50>
2.70

$$$$
>  <compound>
CCc1cc2ccc(C(C)(C#N)Cc3ccc(F)cc3)cc2[nH]c1=O (centres unmarked)

>  <target-of-assay>
TANK-2 enzyme (Homo sapiens)

>  <log10 IC50>
1.50

$$$$
>  <compound>
CCc1cc2cc(F)c(C(C)(C#N)Cc3cccc(C#N)c3)cc2[nH]c1=O (centres unmarked)

>  <target-of-assay>
TANK-2 enzyme (Homo sapiens)

>  <log10 IC50>
2.00

$$$$
>  <compound>
CCc1cc2ccc(C(C#N)(Cc3ccccc3)C3CC3)cc2[nH]c1=O (centres unmarked)

>  <target-of-assay>
TANK-2 enzyme (Homo sapiens)

>  <log10 IC50>
1.50

$$$$
>  <compound>
CCc1cc2ccc(C(C)(C#N)Cc3cc(N(C)C)nc(C#N)n3)cc2[nH]c1=O (centres unmarked)

>  <target-of-assay>
TANK-2 enzyme (Homo sapiens)

>  <log10 IC50>
2.00

$$$$
>  <compound>
CCc1cc2ccc(C(C)(C#N)Cc3cccc4[nH]ccc34)cc2[nH]c1=O (centres unmarked)

>  <target-of-assay>
TANK-2 enzyme (Homo sapiens)

>  <log10 IC50>
2.00

$$$$
>  <compound>
CCc1cc2ccc(C(C)(C#N)CN(C)Cc3ccc(C#N)cc3)cc2[nH]c1=O (centres unmarked)

>  <target-of-assay>
TANK-2 enzyme (Homo sapiens)

>  <log10 IC50>
2.60

$$$$
>  <compound>
CCc1cc2ccc(C(C)(C#N)Cc3cccc(CN4CCN(C)CC4)c3)cc2[nH]c1=O (centres unmarked)

>  <target-of-assay>
TANK-2 enzyme (Homo sapiens)

>  <log10 IC50>
2.10

$$$$
>  <compound>
CCc1cc2ccc(C(C)(C#N)Cc3cccc(C#N)[n+]3[O-])cc2[nH]c1=O (centres unmarked)

>  <target-of-assay>
TANK-2 enzyme (Homo sapiens)

>  <log10 IC50>
1.20

$$$$
>  <compound>
CCc1cc2ccc(C(C)(C#N)Cc3nc4ccccc4n3C)cc2[nH]c1=O (centres unmarked)

>  <target-of-assay>
TANK-2 enzyme (Homo sapiens)

>  <log10 IC50>
2.70

$$$$
>  <compound>
CCc1cc2ccc([C@@](C)(C#N)Cc3ccccc3)cc2[nH]c1=O (single isomer, unassigned)

>  <target-of-assay>
TANK-2 enzyme (Homo sapiens)

>  <log10 IC50>
1.40

$$$$
>  <compound>
CCc1cc2ccc(C(C)(C#N)Cc3cc(C(C)C)ccc3OC)cc2[nH]c1=O (centres unmarked)

>  <target-of-assay>
TANK-2 enzyme (Homo sapiens)

>  <log10 IC50>
3.00

$$$$
